Please respond with reported EC50 for every item in the list.
- target.or.test.system: recombinant human CB2 (hCB2) (Homo sapiens)
- procedure.text: γ-[35S]GTP functional assay, hCB2
Field: numeric (nM). Do not append units.

## Input If you can, please state the reported EC50 value of CCC/C=C/CC1(C)COc2cc(C(=O)NC3CCCCC3)ccc21 (stereo not shown) .
## Output 839

## Input Same question for CC1(Cc2ccccc2)COc2cc(C(=O)N3CCOCC3)ccc21 (stereo not shown) please.
## Output 5580

## Input Also CN(C(=O)c1ccc2c(c1)OCC2(C)Cc1ccccc1)C(C)(C)C (stereo not shown) ?
## Output 95.3

## Input # iterate: CC1(Cc2ccc3ccccc3c2)COc2cc(C(=O)N3CCCCC3)ccc21 (stereo not shown)
## Output 875

## Input What would you report for CC1(Cc2ccc(Cl)cc2)COc2cc(C(=O)N3CCCCC3)ccc21 (stereo not shown) ?
## Output 56.2

## Input Now the same for CC1(Cc2ccccc2)COc2cc(C(=O)NCC3CCOCC3)ccc21 (stereo not shown)
## Output 659

## Input Can you check COc1ccc(CC2(C)COc3cc(C(=O)N4CCCCC4)ccc32)cc1 (stereo not shown) next?
## Output 235

## Input Next entry: CC1(Cc2ccncc2)COc2cc(C(=O)N3CCCCC3)ccc21 (stereo not shown)
## Output 2800

* * *

- target.or.test.system: hCB1 (Homo sapiens, UniProt P21554)
- procedure.text: Radioligand competitive binding assay, hCB1
experimental.endpoint: Ki (nM)
API: value field is a number in nM; no unit string.

## Input Using the record for CC1(Cc2ccc3ccccc3c2)COc2cc(C(=O)N3CCCCC3)ccc21 (centres unmarked) , report its Ki.
## Output 430

* * *

- target.or.test.system: recombinant human CB1 (hCB1) (Homo sapiens)
- Sequence (P21554 whole entry): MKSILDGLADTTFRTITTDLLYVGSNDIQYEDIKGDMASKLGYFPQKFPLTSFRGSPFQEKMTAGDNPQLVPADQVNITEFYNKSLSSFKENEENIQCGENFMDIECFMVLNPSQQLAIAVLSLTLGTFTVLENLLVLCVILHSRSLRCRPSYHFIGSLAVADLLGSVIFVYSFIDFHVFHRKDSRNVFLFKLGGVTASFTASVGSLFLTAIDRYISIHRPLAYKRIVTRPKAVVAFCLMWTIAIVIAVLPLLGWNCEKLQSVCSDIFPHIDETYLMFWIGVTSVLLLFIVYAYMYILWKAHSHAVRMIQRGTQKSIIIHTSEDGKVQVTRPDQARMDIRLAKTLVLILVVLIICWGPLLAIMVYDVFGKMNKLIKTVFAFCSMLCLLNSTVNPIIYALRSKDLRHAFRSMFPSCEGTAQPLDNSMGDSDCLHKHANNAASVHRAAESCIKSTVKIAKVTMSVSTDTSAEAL
- procedure.text: γ-[35S]GTP functional assay, hCB1
pEC50: −log10 of the molar value.
Task for the reader: assign each of the following compounds its reported pEC50.

## Input # get_value(readout='pEC50', item= CCC/C=C/CC1(C)COc2cc(C(=O)NC3CCCCC3)ccc21 (stereo not drawn) )
## Output < 5.00

## Input Queued: CC1(Cc2ccccc2)COc2cc(C(=O)N3CCOCC3)ccc21 (stereo not drawn)
## Output < 5.00

## Input Record: CC1(Cc2ccccc2)COc2cc(C(=O)NCC3CCOCC3)ccc21 (stereo not drawn)
## Output < 5.00

* * *

- target.or.test.system: hCB2 (Homo sapiens, UniProt P34972)
- procedure.text: Radioligand competitive binding assay
- condition.label: read-out: Ki hCB2; CHO-K1 membranes, 1 nM [3H]7; mean ± SEM
Please provide measured pKi for the entries that follow.
Give only the number. pKi is defined as minus log10 of concentration in molar units.

## Input Param readout = pKi; param system = hCB2 (Homo sapiens, UniProt P34972); param query = CC1(Cc2ccccc2)COc2cc(C(=O)N3CCCCC3)ccc21 (centres unmarked) [Compound 18] ; response: value
## Output 6.37

## Input Now this one: CCC/C=C/CC1(C)COc2cc(C(=O)N3CCCCC3)ccc21 (centres unmarked) [Compound 19]
## Output 7.08

* * *

- target.or.test.system: recombinant human CB2 (hCB2) (Homo sapiens, UniProt P34972)
- Sequence (P34972 whole entry): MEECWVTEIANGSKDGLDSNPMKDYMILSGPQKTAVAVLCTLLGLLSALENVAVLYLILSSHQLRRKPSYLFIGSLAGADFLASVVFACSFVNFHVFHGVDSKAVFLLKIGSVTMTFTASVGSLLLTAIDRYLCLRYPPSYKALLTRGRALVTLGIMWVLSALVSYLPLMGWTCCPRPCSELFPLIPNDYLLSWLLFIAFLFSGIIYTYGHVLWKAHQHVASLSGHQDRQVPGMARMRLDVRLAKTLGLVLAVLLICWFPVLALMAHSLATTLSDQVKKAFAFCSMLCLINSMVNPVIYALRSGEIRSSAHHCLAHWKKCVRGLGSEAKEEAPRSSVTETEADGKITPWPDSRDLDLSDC
- procedure.text: γ-[35S]GTP functional assay, hCB2
- Format: biochemical
- condition.label: percentage relative to the efficacy of compound 7
Provide the reported γ-[35S]GTP hCB2 Emax of each item.
Please respond with the number in % and leave the unit unwritten.

## Input Can you look up the measured γ-[35S]GTP hCB2 Emax of C[C@]1(Cc2ccccc2)COc2cc(C(=O)N3CCCCC3)ccc21 [Compound 34] for me?
## Output 43.3

## Input Also check CCC/C=C/CC1(C)COc2cc(C(=O)N3CCCCC3)ccc21 (stereo not shown) [Compound 19]
## Output 97.1

## Input What would you report for C[C@@]1(Cc2ccccc2)COc2cc(C(=O)N3CCCCC3)ccc21 [Compound 33] ?
## Output 86

## Input Try CC1(Cc2ccccc2)COc2cc(C(=O)N3CCCCC3)ccc21 (stereo not shown) [Compound 18] next.
## Output 88.3
